- experimental system: PD-1/PD-L1 interaction (Homo sapiens, UniProt Q9NZQ7)
- Construct: expressed in transfected cells; host or cells: CHO cells (aAPC-PD-L1) co-cultured with Jurkat cells overexpressing PD-1 and an NFAT-luciferase reporter
- Sequence (Q9NZQ7 19-290): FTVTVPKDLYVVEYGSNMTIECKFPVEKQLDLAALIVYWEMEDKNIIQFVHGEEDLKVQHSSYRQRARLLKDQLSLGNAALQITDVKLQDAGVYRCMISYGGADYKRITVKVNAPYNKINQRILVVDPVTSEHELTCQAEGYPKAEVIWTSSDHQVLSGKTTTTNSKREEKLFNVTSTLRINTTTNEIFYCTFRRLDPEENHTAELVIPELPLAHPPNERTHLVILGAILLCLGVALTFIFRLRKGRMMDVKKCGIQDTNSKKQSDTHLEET
- protocol details: PD-1/PD-L1 NFAT reporter co-culture assay
- Assay type: cell-based
- experimental conditions: Jurkat PD-1 NFAT-luciferase cells co-cultured with aAPC-PD-L1 CHO cells, 6 hrs at 37° C.; read-out: EC50 NFAT Luciferase
parameter measured: EC50 (µM)

Take a look at these entries with their results.
Cc1c(COc2cc(OCc3cncc(C#N)c3)c(CNC[C@@H](O)CC(=O)O)cc2Cl)cccc1-c1cccc(Nc2nccc3cc(CNCCO)cnc23)c1C = 0.222
Cc1c(COc2cc(OCc3cncc(C#N)c3)c(CNC(C)(CO)C(=O)O)cc2Cl)cccc1-c1cccc(-c2ccc(CN3CCC4(CC3)CNC4=O)cc2)c1C (centres unmarked) = 0.276
COc1nc(O[C@H]2CCc3c(-c4cccc(-c5cc(C)c(CNC[C@@H]6CCC(=O)N6)c(OC)n5)c4Cl)cccc32)c(Cl)cc1CNC[C@@H]1CCC(=O)N1 = 0.02
CC(C)(NCc1cc(Cl)c(OCc2cccc(-c3cccc(-c4ccc(OCCNCCO)cc4)c3Cl)c2Cl)nc1OCc1cncc(S(C)(=O)=O)c1)C(=O)O = 0.079

(A) CS(=O)(=O)c1cncc(COc2nc(OCc3cccc(-c4cccc(-c5ccc6c(c5)C[C@@H](N)C6)c4Cl)c3Cl)c(Br)cc2CN2CCCC[C@H]2C(=O)O)c1
(B) COc1nc(-c2cccc(-c3cccc(-c4ccc5c(c4)[C@H](O)C[C@@H]5N)c3Cl)c2Cl)ccc1CNC[C@@H]1CCC(=O)N1
**Query** // compare: A vs B , metric EC50, want the smaller API: response body contains the label of the selected item.
**Result** A
